Sourced from PubChem BioAssay AID1996

# maps each entry to its solubility kinetic
cond: buffer; pH 7.4; 200.0 µM
# number only, unit µg/mL dropped from output

Cc1ccc(NC(=O)Nc2cnc3ccccc3c2)cc1
0.3

Query: Which measured solubility kinetic value corresponds to "O=C(COC(=O)/C=C/c1ccc(Br)o1)Nc1cccc(S(=O)(=O)N2CCOCC2)c1" ?
Result: 5.9

Query: Could you do the same for "Cc1cc(C(F)(F)F)nc(SCCN2CCOCC2)c1C#N" , please?
Result: 43.3

Query: Could you do the same for CCCCCCCCCCCCCCCC(=O)OC(CC(=O)O)C[N+](C)(C)C.[Cl-] (centres undefined) , please?
Result: 4.5

Query: Could you do the same for "O=C(Cc1ccc(-c2ccccc2)cc1)Nc1ccccc1" , please?
Result: 1.7

Query: Could you do the same for "Clc1ccc(Cl)c(OCCN2CCCC2)c1" , please?
Result: 25.4

Query: Could you do the same for "CCCC(=O)N/C(N)=N/c1nc(C)c2ccccc2n1" , please?
Result: 15.3

----------
cond: buffer; pH 7.4; 200.0 µM
# maps each entry to its log10 of solubility kinetic
Form field - Quantity: solubility kinetic; Unit: µg/mL; Scale: log10

S=C(NCc1ccccc1)Nc1ccc(Oc2ccccc2)cc1
0.83
COc1ccccc1C1=NC(c2ccccc2)CN1c1ccccc1 (configuration not stated)
-0.22
CC(=O)Nc1ccc(Oc2ccccc2)cc1
1.53
COc1ccccc1N(CCOc1ccccc1)S(=O)(=O)c1ccccc1
0.59

Now for another entry.
Query: Which measured log10 of solubility kinetic value corresponds to "O=C(Nc1nccs1)c1ccc([N+](=O)[O-])cc1Cl" ?
Result: 0.58

----------
cond: buffer; pH 7.4; 200.0 µM
Answer no if solubility kinetic is under 30 µg/mL, and yes if it is 30 µg/mL or more.

Previously resolved entries follow.
CCN(C(=O)/C=C/c1ccccc1)C1CCCCC1
yes
O=C(O)c1ccc(/C=N/N2CCN(c3ccccc3)CC2)cc1
yes
O=C(NC(=S)NC12CC3CC(CC(C3)C1)C2)c1ccc(F)cc1
no
O=C(NC(=S)N1CCc2ccccc21)C1CCC1
yes
CN(C)C(CNC(=O)CSC(=S)N1CCCC1)c1ccccc1 (centres undefined)
yes

Query: Record CC(=O)c1c(C)[nH]c(C(=O)COC(=O)CN2C(=O)C3CCCCC3C2=O)c1C (centres undefined) ; criterion: solubility kinetic no lower than 30 µg/mL. Met?
Result: yes

Query: Could you do the same for "O=C(NC1=NCCS1)c1ccccc1OCc1ccc(F)cc1" , please?
Result: no

Query: Could you do the same for CC(C)Cc1ccc(S(=O)(=O)NCC2CCCO2)cc1 (centres undefined) , please?
Result: yes

Query: Could you do the same for "CN(C)C(=O)c1cc(C(=O)c2ccc(C(F)(F)F)cc2)c[nH]1" , please?
Result: no

Query: Could you do the same for "COc1ccc(C(=O)N/N=C\c2ccoc2)cc1" , please?
Result: yes

Query: Could you do the same for O=C(OCC(=O)N1CCc2ccccc21)[C@@H]1CC(O)CN1S(=O)(=O)c1ccccc1[N+](=O)[O-] (some centres undefined) , please?
Result: no

Query: Could you do the same for O=C(O)C1C2CCC(O2)C1C(=O)Nc1cccc(Cl)c1 (centres undefined) , please?
Result: yes

Query: Could you do the same for "Cc1cccc2c3c([nH]c12)CCNC3.Cl" , please?
Result: yes

Query: Could you do the same for "COc1cc(C(=O)NCCNC(=O)c2cnccn2)cc(OC)c1OC" , please?
Result: yes

Query: Could you do the same for CN(C(=O)c1cccs1)C1(C)CCS(=O)(=O)C1 (centres undefined) , please?
Result: yes

Query: Could you do the same for "O=C(CN1C(=O)c2ccccc2C1=O)Nc1cccc(Cl)c1" , please?
Result: no

Query: Could you do the same for "CCn1c(SCc2ccc(OC)c(F)c2)nc2ccccc2c1=O" , please?
Result: no

Query: Could you do the same for "COc1ccc(NC(=O)CN(C)C(=O)CCC2CCCC2)cc1" , please?
Result: yes

Query: Could you do the same for "O=C1CN(S(=O)(=O)c2ccc(F)cc2)CCN1" , please?
Result: yes

Query: Could you do the same for "CC(=O)Nc1ccc(-c2csc(Nc3cc(C)ccn3)n2)cc1" , please?
Result: no

Query: Could you do the same for "O=C(NC(=S)Nc1ccc(O)cc1)c1cncc(Br)c1" , please?
Result: yes

Query: Could you do the same for "CN1CCN(c2nc3c(c(=O)[nH]c(=O)n3C)n2Cc2ccccc2)CC1" , please?
Result: yes

Query: Could you do the same for "Cc1ccccc1N=Cc1cccc(O)c1O" , please?
Result: no
